- Tested on: HeLa
- METHOD: Primary qHTS to identify gynecologic anti-cancer compounds using libraries of approved drugs and bioactive compounds (AID 1345084); also: % is scaled to controls: 0 for no effect and ±100 for the full control effect; nearly all actives have a fitted effect of over 55% in size
- REPORTED CONDITIONS: Gynecologic cancer cell panel viability, ATPlite luminescence, 48 h; series mostly up to 57.5 µM
Results filed as inconclusive are left out. The source made the active and inactive calls. Calls follow the shape of the dose curve; as a rule, active = well fitted cell-killing curve with a large enough effect; inconclusive = small, poorly fitted or top-dose-only effect, or effect the other way; inactive = flat fitted curve, though single readings scatter.
QUANTITY KIND: activity change, negative = cytotoxicity

{"MOLECULE": "CC(CC12CCCN1C(=O)C1CCCN1C2=O)OC(N)=O (centres undefined)", "OBS VALUE": "inactive"}
{"MOLECULE": "CC(C)(O)C1CC=C(C(=O)OC[C@H]2O[C@@H](OC(=O)C3=CCC(C(C)(C)O)CC3)[C@H](O)[C@@H](O)[C@@H]2O)CC1 (some centres undefined)", "OBS VALUE": "inactive"}
{"MOLECULE": "CC(=O)O[C@@H](C[C@@H]1C=C(C)C(=O)O1)[C@H](C)[C@H]1CCC2[C@@]3(C)CC[C@H](O[C@@H]4O[C@H](CO)[C@@H](O)[C@H](O)[C@H]4O[C@@H]4O[C@@H](C)[C@H](O)[C@@H](O)[C@H]4O)C(C)(C)C3CC[C@@]2(C)[C@@]12COC(=O)C2 (some centres undefined)", "OBS VALUE": "5.41% [at 11.6 µM] (inactive)"}
{"MOLECULE": "COc1cc(C(CO)C(OC2OC(CO)C(O)C(O)C2O)c2ccc(O)c(OC)c2)ccc1O (centres undefined)", "OBS VALUE": "inactive"}
{"MOLECULE": "N#CC1C(=O)N=C(c2cc(Cl)ccc2O)C=C1c1cc(OCc2ccccc2)cc(OCc2ccccc2)c1 (centres undefined)", "OBS VALUE": "inactive"}
{"MOLECULE": "c1ccc2c(Nc3nnc(-c4ccncc4)s3)cccc2c1", "OBS VALUE": "inactive"}
{"MOLECULE": "CC(=O)OC1C(O)C(C)(O)C(/C=C/C(=O)O)C2(C)CCCC(C)(C)C12 (centres undefined)", "OBS VALUE": "inactive"}
{"MOLECULE": "CC(C)=CC1C[C@](C)(O)[C@@H]2[C@H]3CCC4[C@@]5(C)CC[C@H](O[C@@H]6OC[C@H](O)[C@H](O[C@@H]7O[C@H](CO[C@@H]8O[C@H](CO)[C@@H](O)[C@H](O)[C@H]8O)[C@@H](O)[C@H](O)[C@H]7O)[C@H]6O[C@@H]6O[C@@H](C)[C@H](O)[C@@H](O)[C@H]6O)C(C)(C)[C@@H]5CC[C@@]4(C)[C@@]34CO[C@@]2(C4)O1 (some centres undefined)", "OBS VALUE": "6.98% [at 11.6 µM] (inactive)"}
{"MOLECULE": "O=C(/C=C/c1ccc(O)cc1)O[C@H]1[C@H](OC2CCCCC2O)O[C@H](CO)[C@@H](O)[C@@H]1O (some centres undefined)", "OBS VALUE": "inactive"}
{"MOLECULE": "CC1(C)C[C@H](O)C[C@@]2(C)[C@H]1[C@H](O)C=C1COC(=O)[C@@]12O", "OBS VALUE": "inactive"}
{"MOLECULE": "O=C(/C=C/c1ccc(O)c(O)c1)O[C@H]1[C@@H]2C=CO[C@@H](O[C@@H]3O[C@H](CO)[C@@H](O)[C@H](O)[C@H]3O)[C@@H]2[C@@]2(CO)O[C@@H]12", "OBS VALUE": "inactive"}
{"MOLECULE": "C/C=C1/C[N+](C)([O-])C2Cc3c([nH]c4ccccc34)C(=O)CC1C2C(=O)OC (centres undefined)", "OBS VALUE": "inactive"}
{"MOLECULE": "CC1=C2C[C@@]3(C)C(CCC[C@@H]3C)C(O)C2(O)OC1=O (some centres undefined)", "OBS VALUE": "inactive"}
{"MOLECULE": "C=CC(C)(O)CC/C=C(\\C)C1CC=C(C)C(=O)O1 (centres undefined)", "OBS VALUE": "inactive"}

====

- System: C33A
- METHOD: Primary qHTS to identify gynecologic anti-cancer compounds using libraries of approved drugs and bioactive compounds (AID 1345084); also: % is scaled to controls: 0 for no effect and ±100 for the full control effect; nearly all actives have a fitted effect of over 55% in size
- REPORTED CONDITIONS: Gynecologic cancer cell panel viability, ATPlite luminescence, 48 h; series mostly up to 57.5 µM
Records with an inconclusive call do not appear. Activity calls are given as the source filed them. The call rests on the fitted dose curve; in most records, active means well fitted cell-killing curve with a large enough effect; inconclusive means small, poorly fitted or top-dose-only effect, or effect the other way; inactive means flat fitted curve, though single readings scatter.
QUANTITY KIND: activity change, negative = cytotoxicity

{"MOLECULE": "CC[C@@H]1[C@H]2CCCCN3C(=O)C[C@H]([C@@H]4[C@H]1OC(=O)[C@H]4C)[C@@H]23", "STUDY TARGET": "C33A", "OBS VALUE": "inactive"}
{"MOLECULE": "Cc1c(F)cc(C(=O)NC2CC2)cc1-c1ccc(C(=O)NCC(C)(C)C)cn1", "STUDY TARGET": "C33A", "OBS VALUE": "inactive"}
{"MOLECULE": "CC(=O)N[C@H]1[C@H](O[C@H]2CC[C@]3(C)C4CC=C5[C@@H]6CC(C)(C)CC[C@]6(C(=O)O)[C@H](O)C[C@@]5(C)[C@]4(C)CC[C@H]3C2(C)C)O[C@H](CO)[C@@H](O)[C@@H]1O (stereo partly specified)", "STUDY TARGET": "C33A", "OBS VALUE": "inactive"}
{"MOLECULE": "CC1(C)CC[C@]2(C(=O)O[C@@H]3O[C@H](CO)[C@@H](O)[C@H](O)[C@H]3O)CC[C@]3(C)C(=CCC4[C@@]5(C)CC[C@H](O[C@H]6O[C@H](CO)[C@@H](O)[C@H](O[C@@H]7O[C@H](CO)[C@@H](O)[C@H](O)[C@H]7O)[C@H]6O)C(C)(C)C5CC[C@]43C)[C@@H]2C1 (stereo partly specified)", "STUDY TARGET": "C33A", "OBS VALUE": "0.319% [at 11.6 µM] (inactive)"}
{"MOLECULE": "C[C@@H]1O[C@@H](OC2C(CO)OC(OCC3OC(OC(=O)[C@]45CCC(C)(C)CC4C4=CCC6[C@@]7(C)CC[C@@H](O)[C@](C)(C(=O)O)C7CC[C@@]6(C)[C@]4(C)CC5)C(O)C(O)C3O)C(O)C2O)[C@H](O)[C@H](O)[C@H]1O (stereo partly specified)", "STUDY TARGET": "C33A", "OBS VALUE": "1.71% [at 11.6 µM] (inactive)"}
{"MOLECULE": "C=C(COC(=O)C(C)C)C1Oc2cc(C(C)=O)ccc2C1OC(=O)C(C)C (stereo unspecified)", "STUDY TARGET": "C33A", "OBS VALUE": "inactive"}
{"MOLECULE": "Cc1c(-c2ccc3c(c2)OCO3)oc2ccc(C(O)C(C)O)cc12 (stereo unspecified)", "STUDY TARGET": "C33A", "OBS VALUE": "inactive"}
{"MOLECULE": "Cc1sc(C)c(C(=O)NC2(c3ccc(C(=O)O)cc3)CC2)c1Cc1ccc(C(F)(F)F)cc1", "STUDY TARGET": "C33A", "OBS VALUE": "inactive"}
{"MOLECULE": "N#CN1CCC[C@@H](n2nc(-c3ccc(Oc4ccc(F)cc4F)cc3)c(C(N)=O)c2N)C1", "STUDY TARGET": "C33A", "OBS VALUE": "inactive"}
{"MOLECULE": "CC1OC(O[C@@H]2[C@H](O)[C@@H](OC3OC(CO)C(O)C(O)C3O)[C@H](OC(=O)[C@]34CCC(C)(C)C[C@H]3C3=CCC5[C@@]6(C)CC[C@H](O[C@@H]7O[C@H](C(=O)O)[C@@H](O)[C@H](O[C@@H]8OC[C@@H](O)[C@H](O)[C@H]8O)[C@H]7O[C@@H]7O[C@H](CO)[C@H](O)[C@H](O)[C@H]7O)[C@@](C)(C=O)C6CC[C@@]5(C)[C@]3(C)C[C@H]4O)O[C@@H]2C)C(O)C(O)C1OC1OCC(O)C(O)C1O (stereo partly specified)", "STUDY TARGET": "C33A", "OBS VALUE": "2.44% [at 6.55 µM] (inactive)"}
{"MOLECULE": "CC1(C)C=Cc2c(ccc3c2[N+]([O-])=C2C3(O)CC34NC(=O)C5(CCCN5C3=O)CC4C2(C)C)O1 (stereo unspecified)", "STUDY TARGET": "C33A", "OBS VALUE": "inactive"}

====

- Test system: Tov112D
- METHOD: Primary qHTS to identify gynecologic anti-cancer compounds using libraries of approved drugs and bioactive compounds (AID 1345084); also: % is scaled to controls: 0 for no effect and ±100 for the full control effect; nearly all actives have a fitted effect of over 55% in size
- REPORTED CONDITIONS: Gynecologic cancer cell panel viability, ATPlite luminescence, 48 h; series mostly up to 57.5 µM
Records with an inconclusive call do not appear. The source made the active and inactive calls. Calls come from the whole dose curve; as a rule, active = well fitted cell-killing curve with a large enough effect; inconclusive = small, poorly fitted or top-dose-only effect, or effect the other way; inactive = flat fitted curve, though single readings scatter.
QUANTITY KIND: activity change, negative = cytotoxicity

{"COMPOUND": "C[C@@H]1O[C@@H](O[C@H]2[C@H](OC(=O)[C@]34CCC(C)(C)C[C@H]3C3=CCC5[C@@]6(C)CC[C@H](O[C@@H]7O[C@H](CO[C@@H]8OC[C@H](O)[C@H](O)[C@H]8O)[C@@H](O)[C@H](O)[C@H]7O)C(C)(C)C6CC[C@@]5(C)[C@]3(C)C[C@H]4O)OC[C@@H](O)[C@@H]2O)[C@H](O)[C@H](O[C@@H]2OC[C@](O)(CO)[C@H]2O)[C@H]1O[C@@H]1OC[C@H](O)[C@H](O[C@@H]2OC[C@@H](O)[C@H](O)[C@H]2O)[C@H]1O (stereo partly specified)", "QUANTITY KIND": "activity change, negative = cytotoxicity", "OBS VALUE": "0.0459% [at 6.55 µM] (inactive)"}
